This section lists pIC50 readings for UniProt:P11509.
Sequence (P11509 whole entry): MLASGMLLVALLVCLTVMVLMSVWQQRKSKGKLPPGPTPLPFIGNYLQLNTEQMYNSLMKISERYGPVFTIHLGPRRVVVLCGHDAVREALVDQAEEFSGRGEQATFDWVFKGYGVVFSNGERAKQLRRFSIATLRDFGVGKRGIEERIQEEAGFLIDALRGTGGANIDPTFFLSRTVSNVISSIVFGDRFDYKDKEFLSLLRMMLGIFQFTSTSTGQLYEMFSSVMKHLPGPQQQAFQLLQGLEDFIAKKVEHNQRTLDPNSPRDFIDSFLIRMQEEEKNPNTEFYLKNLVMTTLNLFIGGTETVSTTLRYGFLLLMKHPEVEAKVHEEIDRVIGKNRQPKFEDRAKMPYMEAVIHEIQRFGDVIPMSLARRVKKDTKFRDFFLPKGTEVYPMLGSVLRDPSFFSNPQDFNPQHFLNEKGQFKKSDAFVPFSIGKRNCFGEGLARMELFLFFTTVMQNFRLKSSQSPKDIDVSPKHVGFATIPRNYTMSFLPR
pIC50: −log10 of the molar value.

{"COMPOUND": "CCCCCCC1=C(C)CCC1=O", "TESTED ON": "UniProt:P11509", "pIC50": 4.89}
{"COMPOUND": "CCCCC1OC(=O)CC1C (stereo not shown) [Compound ID 11, 4-methyl-5-butyldihydrofuran-2(3H)-one]", "TESTED ON": "UniProt:P11509", "pIC50": 4.25}
{"COMPOUND": "CCCCCn1ccnc1", "TESTED ON": "UniProt:P11509", "pIC50": 5.70}
{"COMPOUND": "CC/C=C\\Cn1ccnc1 [Compound ID 54, (Z)-1-(pent-2-enyl)-1H-imidazole]", "TESTED ON": "UniProt:P11509", "pIC50": 5.15}
{"COMPOUND": "CC/C=C\\CCn1ccnc1 [Compound ID 23, (Z)-1-(hex-3-enyl)-1H-imidazole]", "TESTED ON": "UniProt:P11509", "pIC50": 5.15}
{"COMPOUND": "c1ncc2c(n1)CCCCCCCCCC2", "TESTED ON": "UniProt:P11509", "pIC50": 5.05}
{"COMPOUND": "CC/C=C\\CC1=C(C)CCC1=O", "TESTED ON": "UniProt:P11509", "pIC50": 4.27}
